# assay.text: Stability in human plasma assessed as compound remaining incubated for 120 mins by LC-MS/MS analysis
# Format: ADME, cell-free
# assay.context: read-out: Stability
# remaining at 2 h listing for each entry below
reported.endpoint: remaining at 2 h (%)

>  <molecule>
CC(C)[N+](C)(CCOC(=O)C1c2ccccc2Oc2ccccc21)C(C)C [PROPANTHELINE BROMIDE]

>  <unit.name>
%

>  <assay.value>
0.7

$$$$
>  <molecule>
CCC(CC)O[C@@H]1C=C(C(=O)O)C[C@H](Nc2ncccc2N)[C@H]1NC(C)=O

>  <unit.name>
%

>  <assay.value>
102

$$$$

----------
# assay.text: Cmax in Sprague-Dawley rat at 50 mg/kg, po measured upto 24 hrs by LC-MS/MS analysis
# Type: ADME, organism-based
# Parameters: dose 50 mg/kg, route oral
# assay.context: in vivo

>  <input.smiles>
CCC(CC)O[C@@H]1C=C(C(=O)O)C[C@H](Nc2ncccc2N)[C@H]1NC(C)=O

>  <Cmax>
253 ng/mL

$$$$
